molecular target: human enteropeptidase (Homo sapiens, UniProt P98073); construct: purchased ITSI-Biosciences, LLC #REN-260; assay: Human enteropeptidase enzyme assay; type: biochemical; settings: 120 min incubation of enzyme, substrate and compound at room temperature; 95% confidence intervals in parentheses; read-out: Human enteropeptidase IC50(app)
Sequence (P98073 whole entry): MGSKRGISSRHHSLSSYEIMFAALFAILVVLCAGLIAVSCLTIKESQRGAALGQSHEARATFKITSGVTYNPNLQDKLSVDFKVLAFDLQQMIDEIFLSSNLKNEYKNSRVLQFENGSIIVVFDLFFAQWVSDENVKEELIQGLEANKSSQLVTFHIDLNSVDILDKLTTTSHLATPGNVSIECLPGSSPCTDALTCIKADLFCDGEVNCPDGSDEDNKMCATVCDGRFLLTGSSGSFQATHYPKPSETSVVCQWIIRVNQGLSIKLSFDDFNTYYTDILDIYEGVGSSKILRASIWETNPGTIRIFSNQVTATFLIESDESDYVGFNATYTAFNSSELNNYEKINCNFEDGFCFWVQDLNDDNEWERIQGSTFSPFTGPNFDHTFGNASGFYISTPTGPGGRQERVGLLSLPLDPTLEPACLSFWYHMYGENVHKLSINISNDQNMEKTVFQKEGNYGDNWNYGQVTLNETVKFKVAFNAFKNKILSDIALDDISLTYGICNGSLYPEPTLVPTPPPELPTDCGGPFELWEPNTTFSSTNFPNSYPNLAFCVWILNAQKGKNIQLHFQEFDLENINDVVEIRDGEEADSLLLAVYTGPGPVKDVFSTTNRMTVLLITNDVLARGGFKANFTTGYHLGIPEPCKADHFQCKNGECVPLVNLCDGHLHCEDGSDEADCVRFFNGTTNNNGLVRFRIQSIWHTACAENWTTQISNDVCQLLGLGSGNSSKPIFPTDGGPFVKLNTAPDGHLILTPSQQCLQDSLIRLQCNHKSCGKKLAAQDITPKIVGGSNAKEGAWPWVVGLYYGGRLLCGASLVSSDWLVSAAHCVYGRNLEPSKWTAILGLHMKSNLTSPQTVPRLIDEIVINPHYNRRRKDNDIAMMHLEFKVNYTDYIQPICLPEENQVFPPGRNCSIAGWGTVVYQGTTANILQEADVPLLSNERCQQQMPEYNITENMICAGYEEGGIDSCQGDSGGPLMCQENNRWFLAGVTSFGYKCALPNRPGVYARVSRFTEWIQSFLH
propertyName: IC50 (nM)

For orientation, consider the following solved cases.
compound=N=C(N)Nc1ccc(C(=O)Oc2cccc(C3=NO[C@@](CC(=O)O)(C(=O)O)C3)c2)cc1 propertyname=IC50 measuredvalue=1.8
compound=N=C(N)Nc1ccc(C(=O)Oc2cccc(CC(=O)N[C@@H](CC(=O)O)C(=O)O)c2)cc1.O=C(O)C(F)(F)F propertyname=IC50 measuredvalue=1.6
compound=N=C(N)Nc1ccc(C(=O)Oc2ccc(C(=O)N[C@@H](CC(=O)O)C(=O)O)cc2)cc1.O=C(O)C(F)(F)F propertyname=IC50 measuredvalue=3.2
compound="N=C(N)Nc1ccc(C(=O)Oc2ccc3c(c2)OC[C@@H]3CC(=O)N[C@@H](CC(=O)O)C(=O)O)cc1 [(R)-5b]" propertyname=IC50 measuredvalue=7.7

I. N=C(N)Nc1ccc(C(=O)Oc2ccc(CC(=O)N[C@@H](CC(=O)O)C(=O)O)cc2)c(F)c1
II. N=C(N)Nc1ccc(C(=O)Oc2ccc(CC(=O)N[C@@H](CC(N)=O)C(=O)O)cc2)cc1
QUERY: Smaller IC50 value? Options are I and II Answer by quoting the chosen item's label.
RESULT: I

1. N=C(N)Nc1ccc(C(=O)Oc2ccc(CC(=O)N[C@@H](CCC(=O)O)C(=O)O)cc2)cc1
2. N=C(N)Nc1ccc(C(=O)Oc2cccc(C(=O)N[C@@H](CC(=O)O)C(=O)O)c2)cc1.O=C(O)C(F)(F)F
QUERY: I'd appreciate it if you could identify which of 1 and 2 has the greater IC50. Write down the label of the entry you select.
RESULT: 1
(1: 7.9 nM, 2: 0.82 nM)

A. Cl.N=C(N)Nc1ccc(C(=O)Oc2ccc(CC(=O)N[C@@H](CC(=O)O)C(=O)O)cc2)cc1
B. Cc1cc(NC(=N)N)ccc1C(=O)Oc1ccc(CC(=O)N[C@@H](CC(=O)O)C(=O)O)cc1
QUERY: Recorded IC50 values differ for A and B ; which one is higher? Refer to your chosen entry by its label in the reply.
RESULT: B
